A collection of binders and their measured EC50_Fold change (Jurkat-NFAT-luciferase activation, normalized to ch40-C12-C10-E9)
measuredTarget: human CD3 (human, UniProt P07766 23-207; P04234 22-171; P09693 23-182)
Sequence (P07766 23-207, chain 1 of 3): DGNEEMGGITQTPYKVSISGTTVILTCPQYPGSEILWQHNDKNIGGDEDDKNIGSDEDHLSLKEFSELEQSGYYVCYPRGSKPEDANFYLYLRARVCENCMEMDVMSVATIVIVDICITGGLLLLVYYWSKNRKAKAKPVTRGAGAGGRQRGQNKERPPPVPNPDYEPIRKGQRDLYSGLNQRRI
Sequence (P04234 22-171, chain 2 of 3): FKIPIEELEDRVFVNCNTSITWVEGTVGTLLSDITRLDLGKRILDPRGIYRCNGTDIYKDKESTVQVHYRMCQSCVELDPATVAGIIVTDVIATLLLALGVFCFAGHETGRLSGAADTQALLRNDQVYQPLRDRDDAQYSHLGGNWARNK
Sequence (P09693 23-182, chain 3 of 3): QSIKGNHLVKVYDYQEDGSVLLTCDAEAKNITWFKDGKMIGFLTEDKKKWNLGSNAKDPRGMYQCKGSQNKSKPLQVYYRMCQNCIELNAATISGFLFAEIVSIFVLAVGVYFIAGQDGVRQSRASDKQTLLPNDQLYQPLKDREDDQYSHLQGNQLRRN
assayDetails: cell-based or functional assay
Respond with the bare value in fold.

Known results for binders:
{"binder": "hu40E9-L2H11 (antibody, V domains shown) VH: EVQLVQSGAEVKKPGSSVKVSCKASGYTFSSYVIHWVRQAPGQGLEWMGYINPYNDVIKYNEKFKGRVTLTSDKSTSTAYMELSSLRSEDTAVYYCARDSYYSYRAFAYWGQGTLVTVSS VL: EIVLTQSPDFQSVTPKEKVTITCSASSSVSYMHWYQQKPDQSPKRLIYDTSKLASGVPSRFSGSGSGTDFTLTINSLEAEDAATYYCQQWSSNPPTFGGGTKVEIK", "value": 2.97}
{"binder": "hu40E9-L5H7 (antibody, V domains shown) VH: EVQLVQSGAEVKKPGSSVKVSCKASGYTFSSYVIHWVRQAPGQGLEWMGYINPGNGVIKYNEKFKGRVTLTSDKSTSTAYMELSSLRSEDTAVYYCARDSYSSYDGFAYWGQGTLVTVSS VL: EIVLTQSPDFQSVTPKEKVTITCSASSSVSYMHWYQQKPDQSPKRLIYDTSKLASGVPSRFSGSGSGTDFTLTINSLEAEDAATYYCQQWRSSPPTFGGGTKVEIK", "value": 3.41}
{"binder": "hu40E9-L2H15 (antibody, V domains shown) VH: EVQLVQSGAEVKKPGSSVKVSCKASGYTFSSYVIHWVRQAPGQGLEWMGYINPYNDVIKYNEKFKGRVTLTSDKSTSTAYMELSSLRSEDTAVYYCARGSYYSYDGFAYWGQGTLVTVSS VL: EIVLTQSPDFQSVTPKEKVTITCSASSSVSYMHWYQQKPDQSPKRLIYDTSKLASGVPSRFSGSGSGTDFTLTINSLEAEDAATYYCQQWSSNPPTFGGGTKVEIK", "value": 98.6}
{"binder": "hu40E9-L2H5 (antibody, V domains shown) VH: EVQLVQSGAEVKKPGSSVKVSCKASGYTFSSYVIHWVRQAPGQGLEWMGYINPGSGVIKYNEKFKGRVTLTSDKSTSTAYMELSSLRSEDTAVYYCARDSYYSYDGFAYWGQGTLVTVSS VL: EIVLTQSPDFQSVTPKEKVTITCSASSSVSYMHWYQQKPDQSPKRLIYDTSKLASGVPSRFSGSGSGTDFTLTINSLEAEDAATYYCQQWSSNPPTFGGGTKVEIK", "value": 1.29}
{"binder": "hu40E9-L2H13 (antibody, V domains shown) VH: EVQLVQSGAEVKKPGSSVKVSCKASGYTFSSYVIHWVRQAPGQGLEWMGYINPYNDVIKYNEKFKGRVTLTSDKSTSTAYMELSSLRSEDTAVYYCARDGYYSYDGFAYWGQGTLVTVSS VL: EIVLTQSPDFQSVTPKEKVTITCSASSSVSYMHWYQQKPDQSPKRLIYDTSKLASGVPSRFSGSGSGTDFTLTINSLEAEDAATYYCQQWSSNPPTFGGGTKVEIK", "value": 3.08}

Please look at the following binder next.
What value of measured EC50_Fold change (Jurkat-NFAT-luciferase activation, normalized to ch40-C12-C10-E9) is listed for hu40E9-L2H10 (antibody, V domains shown) VH: EVQLVQSGAEVKKPGSSVKVSCKASGYTFSSYVIHWVRQAPGQGLEWMGYINPYNDVIKYNEKFKGRVTLTSDKSTSTAYMELSSLRSEDTAVYYCARDSYYSYEAFAYWGQGTLVTVSS VL: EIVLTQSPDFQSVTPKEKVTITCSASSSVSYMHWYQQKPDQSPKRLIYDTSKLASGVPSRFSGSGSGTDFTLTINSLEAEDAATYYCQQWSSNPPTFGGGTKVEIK ?
12.6
